# credit: the OPERA property sets (Mansouri et al. 2018)

# experimental parameters: 26 °C
reported metric: solubility (µM)
Expressed in µM, but write only the number.

{"given smiles": "CCNc1nc(O)nc(NC(C)C)n1", "solubility, µM": 29.9}

Prompt: Field request: solubility | item: Clc1cc2oc3cc(Cl)c(Cl)cc3c2cc1Cl
Completion: 0.00226

====

reported metric: logP
Write the value as a bare number.

Answered cases to consult:
{"compound": "NC(N)=S", "reading": -1.08}
{"compound": "Cc1cc(Cl)c(Cl)cc1Cc1c(Cl)cccc1Cl", "reading": 7.15}
{"compound": "CCCCC(NC(Cc1ccccc1)C(=O)N1CCC(OCOC)CC1)C(=O)NC(CC1CCCCC1)C(O)CC(C(=O)NCCNc1n[nH]c(N)n1)C(C)C (stereo unspecified)", "reading": 4.2}

Prompt: Field request: logP | item: C=CCOc1ccccc1OCC(CNC(C)C)OC(=O)CCCC (stereo unspecified)
Completion: 4

Prompt: // query: C=CC(=O)NCCN1CCOCC1
Completion: -0.55

Prompt: // query: Clc1ccc(Cn2cncn2)cc1Cl
Completion: 2.54

====

Listed here are molecules together with their documented logP.
Write the value as a bare number.

Answered cases to consult:
{"molecule": "O=P(O)(O)CCCl", "reported metric": "logP", "reading": -0.22}
{"molecule": "O=c1[nH][nH]c(=O)c2ccccc12", "reported metric": "logP", "reading": 0.11}
{"molecule": "COc1ccc(C=[N+]([O-])C(C)(C)C)cc1", "reported metric": "logP", "reading": 1.21}
{"molecule": "O=C(O)CCCCn1nc2ccccc2n1", "reported metric": "logP", "reading": 0.94}
{"molecule": "CCCCSP(=O)(SCCCC)SCCCC", "reported metric": "logP", "reading": 5.7}
{"molecule": "Clc1cccc(-c2c(Cl)ccc(Cl)c2Cl)c1Cl", "reported metric": "logP", "reading": 6.04}

Proceeding to the next molecule to report its logP.
Prompt: Field request: logP | item: O=C(OCn1ncc2c(=O)[nH]cnc21)c1cccnc1
Completion: 0.27

====

Listed here are molecules together with their documented logP.
Write the value as a bare number.

Answered cases to consult:
{"molecule": "COP(=S)(OC)Oc1ccccc1", "reported metric": "logP", "reading": 3.03}
{"molecule": "C#CCN(C)C(C)Cc1ccc(F)cc1 (stereo not given)", "reported metric": "logP", "reading": 3}
{"molecule": "N#Cc1cc(-c2ccncc2)cnc1N1CCCC1", "reported metric": "logP", "reading": 2.95}
{"molecule": "CC(CCC(=O)O)C1CCC2C3C(O)CC4CC(O)CCC4(C)C3CCC12C (stereo not given)", "reported metric": "logP", "reading": 3}

Prompt: Field request: logP | item: NS(=O)(=O)c1nn2c(=Nc3cccc(F)c3)snc2s1
Completion: 3.06

====

reported metric: log10 of solubility (log10 of the value in mM)
All values: log10 solubility [mM].

Answered cases to consult:
{"compound": "O=P(O)(O)CN(CCCCCCN(CP(=O)(O)O)CP(=O)(O)O)CP(=O)(O)O", "log10 of solubility": 1.48}
{"compound": "O=[N+]([O-])c1ccc(O)cc1C(F)(F)F", "log10 of solubility": 1.38}
{"compound": "COC(=O)CCC(=O)OC", "log10 of solubility": 2.23}
{"compound": "COC(=O)CCCCC(=O)OC", "log10 of solubility": 1.54}

Prompt: Field request: log10 of solubility | item: Clc1cc(Cl)c2cc(Cl)ccc2c1
Completion: -3.56

Prompt: // query: c1ccc2c(c1)oc1ccccc12
Completion: -1.74

Prompt: // query: Oc1ccc(O)cc1
Completion: 2.82
